Cited source: patent EP1878743A2

Bridge positions count the residues as written; N and C are the ends. Square brackets hold non-standard residues; d marks the D form. Peptide text beside a SMILES is read from it. Phe(4-Cl) = N[C@@H](Cc1ccc(Cl)cc1)C(=O)O; Phe(4-F) = N[C@@H](Cc1ccc(F)cc1)C(=O)O; 2Nal = N[C@@H](Cc1ccc2ccccc2c1)C(=O)O; 3Pal = N[C@@H](Cc1cccnc1)C(=O)O; Tle = CC(C)(C)[C@H](N)C(=O)O
Consider the following IC50 values measured on U-II Stimulation of Rat Aorta Phasic Contractions.
// units = µM; emit number, no label

Example cases with answers are listed next.
* C[C@@H](O)[C@@H]1NC(=O)[C@H](CCCCN)NC(=O)[C@@H](Cc2c[nH]c3ccccc23)NC(=O)[C@H](Cc2ccc(O)cc2)NC(=O)[C@H](NC(=O)[C@@H](N)Cc2ccc(Cl)cc2)CSSC[C@@H](C(=O)N[C@@H](Cc2ccc3ccccc3c2)C(N)=O)NC1=O [Cpa-D-Cys-Tyr-D-Trp-Lys-Thr-Cys-Nal-NH2] (H-[Phe(4-Cl)][dC]Y[dW]KTC[2Nal]-NH2; disulfide 2-7; N-terminus assumed) | 0.012
* CC(C)[C@@H]1NC(=O)[C@H](CCCCN)NC(=O)[C@@H](Cc2c[nH]c3ccccc23)NC(=O)[C@H](Cc2cccnc2)NC(=O)[C@H](NC(=O)[C@@H](N)Cc2ccc(F)cc2)CSSC[C@@H](C(=O)N[C@@H](Cc2ccc3ccccc3c2)C(N)=O)NC1=O [4Fpa-D-Cys-Pal-D-Trp-Lys-Val-Cys-Nal-NH2] (H-[Phe(4-F)][dC][3Pal][dW]KVC[2Nal]-NH2; disulfide 2-7; N-terminus assumed) | 1.09

Turning now to a further record.
Q: Data request, read-out IC50, for CC(C)(C)[C@@H]1NC(=O)[C@H](CCCCN)NC(=O)[C@@H](Cc2c[nH]c3ccccc23)NC(=O)[C@H](Cc2cccnc2)NC(=O)[C@H](NC(=O)[C@@H](N)Cc2ccc(F)cc2)CSSC[C@@H](C(=O)N[C@@H](Cc2ccc3ccccc3c2)C(N)=O)NC1=O [4Fpa-D-Cys-Pal-D-Trp-Lys-Tle-Cys-Nal-NH2] (H-[Phe(4-F)][dC][3Pal][dW]K[Tle]C[2Nal]-NH2; disulfide 2-7; N-terminus assumed)
Result: 0.1
